A collection of compounds and their measured T/C
- System: CD2F1 mice, L1210 leukemia ip, survival T/C
- PROTOCOL_DESCRIPTION: NCI In Vivo Anticancer Drug Screen. Data for tumor model L1210 Leukemia (intraperitoneal) in CD2F1 (CDF1) mice
- MEASUREMENT_CONTEXT: endpoint: mean survival time; dose: 12.5 mg/kg/injection; schedule: Q01DX005 (ip); vehicle: water; higher = longer survival
Toxic doses and inconclusive results are not listed.
RECORDED_METRIC: T/C

[
  {
    "COMPOUND": "O=C(OCC1OC(n2ccn(C3OC(COC(=O)c4ccccc4)C(OC(=O)c4ccccc4)C3OC(=O)c3ccccc3)c2=S)C(OC(=O)c2ccccc2)C1OC(=O)c1ccccc1)c1ccccc1 (configuration not stated)",
    "STUDY_TARGET": "CD2F1 mice, L1210 leukemia ip, survival T/C",
    "REPORTED_VALUE": "102 % of control"
  },
  {
    "COMPOUND": "Cc1nc2c(ncn2C2OC3COP(=O)(O)OC3C2O)c2nccn12 (configuration not stated)",
    "STUDY_TARGET": "CD2F1 mice, L1210 leukemia ip, survival T/C",
    "REPORTED_VALUE": "95 % of control"
  },
  {
    "COMPOUND": "C=C1C(=O)OC2CC(C)C3CC(O)OC(O)C3(C)CC12 (configuration not stated)",
    "STUDY_TARGET": "CD2F1 mice, L1210 leukemia ip, survival T/C",
    "REPORTED_VALUE": "102 % of control"
  },
  {
    "COMPOUND": "CN(N)c1nc2c(=O)[nH]c(N)nc2n1C1OC(CO)C(O)C1O (configuration not stated)",
    "STUDY_TARGET": "CD2F1 mice, L1210 leukemia ip, survival T/C",
    "REPORTED_VALUE": "98 % of control"
  },
  {
    "COMPOUND": "Nc1nc(=O)n(C2OC(CO)C(O)C2O)c2nc[nH]c12 (configuration not stated)",
    "STUDY_TARGET": "CD2F1 mice, L1210 leukemia ip, survival T/C",
    "REPORTED_VALUE": "90 % of control"
  },
  {
    "COMPOUND": "Nc1nc(Cl)ncc1C1OC(CO)C(O)C1O (configuration not stated)",
    "STUDY_TARGET": "CD2F1 mice, L1210 leukemia ip, survival T/C",
    "REPORTED_VALUE": "91 % of control"
  },
  {
    "COMPOUND": "O=c1c2ncn(C3CC(O)C(O)C(CO)O3)c2ncn1C1CC(O)C(O)C(CO)O1 (configuration not stated)",
    "STUDY_TARGET": "CD2F1 mice, L1210 leukemia ip, survival T/C",
    "REPORTED_VALUE": "108 % of control"
  }
]

====

// reported T/C for each item listed
- System: CD2F1 mice, L1210 leukemia ip, survival T/C
- PROTOCOL_DESCRIPTION: NCI In Vivo Anticancer Drug Screen. Data for tumor model L1210 Leukemia (intraperitoneal) in CD2F1 (CDF1) mice
- MEASUREMENT_CONTEXT: endpoint: mean survival time; dose: 400.0 mg/kg/injection; schedule: Q01DX009 (ip); vehicle: saline with Tween-80; higher = longer survival
Toxic doses and inconclusive results are not listed.
RECORDED_METRIC: T/C

[
  {
    "MOLECULE": "C=CCCCCCCCCC(=O)NCC1CC1",
    "STUDY_TARGET": "CD2F1 mice, L1210 leukemia ip, survival T/C",
    "REPORTED_VALUE": "86 % of control"
  },
  {
    "MOLECULE": "Cc1cc(C)c(C(=O)c2ccccc2-c2ccccc2C(=O)c2c(C)cc(C)cc2C)c(C)c1",
    "STUDY_TARGET": "CD2F1 mice, L1210 leukemia ip, survival T/C",
    "REPORTED_VALUE": "91 % of control"
  },
  {
    "MOLECULE": "CCCCCCCCC/C(=N\\Nc1ccc([N+](=O)[O-])cc1[N+](=O)[O-])c1ccccc1",
    "STUDY_TARGET": "CD2F1 mice, L1210 leukemia ip, survival T/C",
    "REPORTED_VALUE": "94 % of control"
  },
  {
    "MOLECULE": "CC(=O)OC1CCC2(C)C(CCC3C2CCC2(C)C3CC3OC(CCC(C)CO)C(C)C32)C1 (stereo unspecified)",
    "STUDY_TARGET": "CD2F1 mice, L1210 leukemia ip, survival T/C",
    "REPORTED_VALUE": "96 % of control"
  },
  {
    "MOLECULE": "C(=Nc1ccc(-c2ccccc2)cc1)c1ccccc1",
    "STUDY_TARGET": "CD2F1 mice, L1210 leukemia ip, survival T/C",
    "REPORTED_VALUE": "91 % of control"
  },
  {
    "MOLECULE": "COC(C(N)=O)(c1ccccc1)C(F)(F)F (stereo unspecified)",
    "STUDY_TARGET": "CD2F1 mice, L1210 leukemia ip, survival T/C",
    "REPORTED_VALUE": "94 % of control"
  },
  {
    "MOLECULE": "CCC(C)C(C)OC(=O)c1cc([N+](=O)[O-])cc([N+](=O)[O-])c1 (stereo unspecified)",
    "STUDY_TARGET": "CD2F1 mice, L1210 leukemia ip, survival T/C",
    "REPORTED_VALUE": "90 % of control"
  },
  {
    "MOLECULE": "C=C(C)COc1c(C)cc(C)cc1[N+](=O)[O-]",
    "STUDY_TARGET": "CD2F1 mice, L1210 leukemia ip, survival T/C",
    "REPORTED_VALUE": "104 % of control"
  },
  {
    "MOLECULE": "O=C(c1ccccc1)C1OC1c1ccccc1 (stereo unspecified)",
    "STUDY_TARGET": "CD2F1 mice, L1210 leukemia ip, survival T/C",
    "REPORTED_VALUE": "94 % of control"
  },
  {
    "MOLECULE": "O=C(O)CC(C(=O)O)c1ccc([N+](=O)[O-])cc1 (stereo unspecified)",
    "STUDY_TARGET": "CD2F1 mice, L1210 leukemia ip, survival T/C",
    "REPORTED_VALUE": "97 % of control"
  },
  {
    "MOLECULE": "NC(=O)C(Cl)(Cl)C(Cl)(Cl)C(Cl)(Cl)Cl",
    "STUDY_TARGET": "CD2F1 mice, L1210 leukemia ip, survival T/C",
    "REPORTED_VALUE": "90 % of control"
  }
]

====

- System: CD2F1 mice, L1210 leukemia ip, survival T/C
- PROTOCOL_DESCRIPTION: NCI In Vivo Anticancer Drug Screen. Data for tumor model L1210 Leukemia (intraperitoneal) in CD2F1 (CDF1) mice
- MEASUREMENT_CONTEXT: endpoint: mean survival time; dose: 100.0 mg/kg/injection; schedule: Q04DX002 (ip); vehicle: saline with Tween-80; higher = longer survival
Inconclusive results and toxic doses are left out.

[
  {
    "MOLECULE": "CC1(C)COC(CCc2ccccc2)=N1",
    "T/C": "108 % of control"
  },
  {
    "MOLECULE": "CCOC(=O)C1CC(=O)C(C(=O)OCC)CC1=O (stereo not given)",
    "T/C": "107 % of control"
  },
  {
    "MOLECULE": "CCCCSc1cc(C)nc2ccccc12",
    "T/C": "96 % of control"
  },
  {
    "MOLECULE": "O=C1c2ccccc2C(=O)N1CCS(=O)(=O)O",
    "T/C": "97 % of control"
  },
  {
    "MOLECULE": "O=[N+]([O-])O.[NH-]C1CCCCC1[NH-].[NH-]C1CCCCC1[NH-].[Ni+2] (stereo not given)",
    "T/C": "113 % of control"
  },
  {
    "MOLECULE": "CCOC(=O)C1CC(=O)C2/C(=C(\\O)c3ccccc3)C=C([N+](=O)[O-])C1C2[N+](=O)[O-] (stereo not given)",
    "T/C": "94 % of control"
  },
  {
    "MOLECULE": "CN(CCC#N)c1ccc(C(=C2C=CC(=Nc3ccccc3)c3ccccc32)c2ccc(N(C)CCC#N)cc2)cc1",
    "T/C": "97 % of control"
  },
  {
    "MOLECULE": "S=C(N/N=C/c1ccccn1)Nc1ccccn1",
    "T/C": "103 % of control"
  },
  {
    "MOLECULE": "CCCCCCC(C)Oc1ccccc1Cl (stereo not given)",
    "T/C": "107 % of control"
  },
  {
    "MOLECULE": "CCCCCCCC/C=C\\CCCCCCCCNP(=O)(OCCCCCCCCCCCC)OCCCCCCCCCCCC",
    "T/C": "96 % of control"
  },
  {
    "MOLECULE": "O=c1c2ccccc2[nH]c(=S)n1C1CCCC1",
    "T/C": "96 % of control"
  },
  {
    "MOLECULE": "CCCCCCCCCCCCNC(=O)Nc1cccc(OC)c1",
    "T/C": "94 % of control"
  },
  {
    "MOLECULE": "CC1(C(=O)c2ccccc2)CC2C=CC1C2 (stereo not given)",
    "T/C": "108 % of control"
  },
  {
    "MOLECULE": "O=C=Nc1ccc(Cl)c(Cl)c1 (tested in a mixture with another compound)",
    "T/C": "108 % of control"
  },
  {
    "MOLECULE": "CC1CC(C)(C)N=C(CCCCCCl)O1 (stereo not given)",
    "T/C": "108 % of control"
  },
  {
    "MOLECULE": "O=C1OC(=O)C2CCCC3CCCC1C32 (stereo not given)",
    "T/C": "108 % of control"
  },
  {
    "MOLECULE": "NCc1ccc(-n2cnc3c(=O)[nH]c(N)nc32)cc1",
    "T/C": "107 % of control"
  },
  {
    "MOLECULE": "CC1(CCC2(C)OCCO2)OCCO1",
    "T/C": "93 % of control"
  },
  {
    "MOLECULE": "N#C/C(=C\\C=C\\c1cccc([N+](=O)[O-])c1)c1ccccc1",
    "T/C": "102 % of control"
  },
  {
    "MOLECULE": "COc1cc2c(cc1OC)C(CC(C)C)=[N+](C)CC2",
    "T/C": "92 % of control"
  },
  {
    "MOLECULE": "CCCCOP(=O)(OCCCC)Oc1cccc2ccccc12",
    "T/C": "91 % of control"
  },
  {
    "MOLECULE": "CCOC(=O)/C(C#N)=N/Nc1cccc(Cl)c1Cl",
    "T/C": "96 % of control"
  },
  {
    "MOLECULE": "CN(C)C(=O)C(O)C1CCCCC1 (stereo not given)",
    "T/C": "94 % of control"
  },
  {
    "MOLECULE": "CC(=O)OC1(c2ccccc2)OC(=O)c2ccccc21 (stereo not given)",
    "T/C": "97 % of control"
  },
  {
    "MOLECULE": "COc1cc(C2=N/C(=C\\c3ccc(C(C)C)cc3)C(=O)O2)cc(OC)c1OC",
    "T/C": "90 % of control"
  }
]
